measured_target: recombinant human cathepsin K (hCatK) (Homo sapiens (Human))
Sequence (P43235 115-329): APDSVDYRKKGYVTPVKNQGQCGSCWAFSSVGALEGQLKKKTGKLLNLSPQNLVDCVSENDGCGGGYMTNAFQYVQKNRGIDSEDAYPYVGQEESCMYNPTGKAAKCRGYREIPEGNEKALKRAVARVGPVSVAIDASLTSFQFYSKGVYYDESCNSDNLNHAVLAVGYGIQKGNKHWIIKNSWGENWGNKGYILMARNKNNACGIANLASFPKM
procedure_text: CatK functional enzyme assay (fluorogenic substrate Z-FR-AMC)
test_context: Ki calculated by Cheng Prusoff equation; pH 5.5
Method: Reference and test compounds were assayed for inhibitory potency (IC50) against human cathepsins using the following assay setups: Recombinant human cathepsins (CatS, CatK, CatL, CatB) were purchased from a Enzo Life Sciences. […] Flourogenic substrate turnover was detected using a microplate reader (Synergyl™ H4, BioTek). Ki values were calculated using the Cheng Prusoff equation (Cheng & Prosoff 1973).
I'd be grateful if you could share measured pKi for these entries.
Numbers only, as −log10 of the molar value.

Known results for compounds:
smiles=O=C(N[C@H](C(=O)N1C[C@H](Cl)[C@H]2OCC(=O)[C@H]21)C1CCCC1)c1ccc(-c2cncc(F)c2)s1 measured_number=8.51
smiles=O=C(N[C@H](C(=O)N1C[C@H](Cl)[C@H]2OCC(=O)[C@H]21)C1CCCC1)c1ccc(-c2cncnc2)s1 measured_number=8.68

Please look at the following compound next.
Which pKi is reported for this compound? O=C(N[C@H](C(=O)N1C[C@H](Cl)[C@H]2OCC(=O)[C@H]21)C1CCCC1)c1ncc(-c2cccnn2)s1
8.28

* * *

measured_target: recombinant human cathepsin S (hCatS) (Homo sapiens (Human), UniProt P25774)
Sequence (P25774 115-331): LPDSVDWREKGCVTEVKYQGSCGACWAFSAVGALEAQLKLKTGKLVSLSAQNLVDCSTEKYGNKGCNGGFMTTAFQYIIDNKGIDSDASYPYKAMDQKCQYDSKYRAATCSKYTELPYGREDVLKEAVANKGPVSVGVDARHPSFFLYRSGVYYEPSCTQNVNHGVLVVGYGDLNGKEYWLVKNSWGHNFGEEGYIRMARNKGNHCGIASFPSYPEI
procedure_text: CatS functional enzyme assay (fluorogenic substrate Z-VVR-AMC)
test_context: Ki calculated by Cheng Prusoff equation; pH 6.5
I'd be grateful if you could share measured Ki for these entries.
Answers are plain numbers, in nM.

compound="O=C(N[C@H](C(=O)N1C[C@H](Cl)[C@H]2OCC(=O)[C@H]21)C1CCCC1)c1ccc(-c2ccnnc2)s1 [Example 4]" scale_unit=nM measured_number=39.8
compound="O=C(N[C@H](C(=O)N1C[C@H](Cl)[C@H]2OCC(=O)[C@H]21)C1CCCC1)c1cccc(-c2cccnc2)c1 [Comparative Example C1, reference compound]" scale_unit=nM measured_number=82.4

Please look at the following compound next.
Which Ki is reported for this compound? O=C(N[C@H](C(=O)N1C[C@H](Cl)[C@H]2OCC(=O)[C@H]21)C1CCCC1)c1ccc(-c2cccnn2)s1 [Example 1]
151

* * *

I'd be grateful if you could share measured Ki for these entries.
measured_target: recombinant human cathepsin S (hCatS) (Homo sapiens (Human))
procedure_text: CatS functional enzyme assay (fluorogenic substrate Z-VVR-AMC)
test_context: Ki calculated by Cheng Prusoff equation; pH 6.5
Numbers only, in nM.

Provide Ki for all items below, preserving their order.
1. O=C(N[C@H](C(=O)N1C[C@H](Cl)[C@H]2OCC(=O)[C@H]21)C1CCCC1)c1ccc(-c2cncc(F)c2)s1
2. O=C(N[C@H](C(=O)N1C[C@H](Cl)[C@H]2OCC(=O)[C@H]21)C1CCCC1)c1ccc(-c2ccncc2)s1
3. O=C(N[C@H](C(=O)N1C[C@H](Cl)[C@H]2OCC(=O)[C@H]21)C1CCCC1)c1ccc(-c2cnccn2)s1
4. O=C(N[C@H](C(=O)N1C[C@H](Cl)[C@H]2OCC(=O)[C@H]21)C1CCCC1)c1ccc(-c2cccnc2)s1

[174, 160, 355, 308]

Provide Ki for all items below, preserving their order.
1. O=C(N[C@H](C(=O)N1C[C@H](Cl)[C@H]2OCC(=O)[C@H]21)C1CCCC1)c1ncc(-c2cccnn2)s1
2. O=C(N[C@H](C(=O)N1C[C@H](Cl)[C@H]2OCC(=O)[C@H]21)C1CCCC1)c1ccc(-c2cncnc2)s1

263
110
